This collection of values is drawn from ChEMBL document CHEMBL3091335.

Biological target: P2X purinoceptor 1 (Rattus norvegicus, UniProt P47824)
Sequence (P47824 whole entry): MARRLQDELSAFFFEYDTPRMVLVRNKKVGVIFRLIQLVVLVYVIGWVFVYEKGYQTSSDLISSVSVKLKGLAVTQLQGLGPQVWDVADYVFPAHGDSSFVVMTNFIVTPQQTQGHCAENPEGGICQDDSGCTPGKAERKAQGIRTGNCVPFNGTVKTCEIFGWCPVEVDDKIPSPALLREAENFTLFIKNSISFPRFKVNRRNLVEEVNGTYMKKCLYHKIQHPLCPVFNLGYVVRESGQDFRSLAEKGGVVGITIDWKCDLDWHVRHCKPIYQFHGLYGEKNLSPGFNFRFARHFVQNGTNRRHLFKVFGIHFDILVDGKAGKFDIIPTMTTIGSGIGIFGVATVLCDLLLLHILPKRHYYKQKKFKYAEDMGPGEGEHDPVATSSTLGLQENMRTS
Experiment: Antagonist activity at recombinant rat P2X1 receptor expressed in Xenopus oocytes assessed as ion flux stimulation
ENDPOINT_NAME: pIC50
Note on pIC50: it is the negative log10 of concentration, concentration in mol/L.

Enquiry: Please tell me the measured pIC50 for `Cc1nc(/N=N/c2ccc(C(=O)O)cc2)c(COP(=O)(O)O)c(C=O)c1O` ; system: P2X purinoceptor 1 (Rattus norvegicus, UniProt P47824).
Return: 7.37

----------
Biological target: P2X purinoceptor 7 (Homo sapiens, UniProt Q99572)
Sequence (Q99572 whole entry): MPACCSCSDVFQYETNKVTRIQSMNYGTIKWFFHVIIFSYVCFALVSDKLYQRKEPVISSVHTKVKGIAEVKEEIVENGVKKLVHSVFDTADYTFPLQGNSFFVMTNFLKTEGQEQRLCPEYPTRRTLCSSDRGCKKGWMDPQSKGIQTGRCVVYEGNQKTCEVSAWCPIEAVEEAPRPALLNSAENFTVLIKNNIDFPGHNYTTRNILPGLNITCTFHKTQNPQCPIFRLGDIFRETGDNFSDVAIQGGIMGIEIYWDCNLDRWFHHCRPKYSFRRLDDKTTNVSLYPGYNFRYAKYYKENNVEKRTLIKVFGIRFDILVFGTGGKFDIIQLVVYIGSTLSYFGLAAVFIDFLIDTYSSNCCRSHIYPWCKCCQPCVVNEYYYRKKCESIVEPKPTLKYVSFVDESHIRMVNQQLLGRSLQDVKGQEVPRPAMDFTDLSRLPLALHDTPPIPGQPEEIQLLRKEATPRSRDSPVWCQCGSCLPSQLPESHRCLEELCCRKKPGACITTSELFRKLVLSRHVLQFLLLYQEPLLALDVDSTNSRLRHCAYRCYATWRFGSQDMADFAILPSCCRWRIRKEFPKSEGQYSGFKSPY
Experiment: Antagonist activity at recombinant human P2X7 receptor assessed as inhibition of BzATP-mediated Yo-Pro uptake measured for 1 hr by FLIPR assay
ENDPOINT_NAME: pIC50
Note on pIC50: it is the negative log10 of concentration, concentration in mol/L.

Enquiry: Identify pIC50 associated with the molecule `CN([C@@H](Cc1ccc(OS(=O)(=O)c2cccc3cnccc23)cc1)C(=O)N1CCN(c2ccccc2)CC1)S(=O)(=O)c1cccc2cnccc12`
Return: 6.68

----------
Target: P2X purinoceptor 3 (Homo sapiens, UniProt P56373)
Sequence (P56373 whole entry): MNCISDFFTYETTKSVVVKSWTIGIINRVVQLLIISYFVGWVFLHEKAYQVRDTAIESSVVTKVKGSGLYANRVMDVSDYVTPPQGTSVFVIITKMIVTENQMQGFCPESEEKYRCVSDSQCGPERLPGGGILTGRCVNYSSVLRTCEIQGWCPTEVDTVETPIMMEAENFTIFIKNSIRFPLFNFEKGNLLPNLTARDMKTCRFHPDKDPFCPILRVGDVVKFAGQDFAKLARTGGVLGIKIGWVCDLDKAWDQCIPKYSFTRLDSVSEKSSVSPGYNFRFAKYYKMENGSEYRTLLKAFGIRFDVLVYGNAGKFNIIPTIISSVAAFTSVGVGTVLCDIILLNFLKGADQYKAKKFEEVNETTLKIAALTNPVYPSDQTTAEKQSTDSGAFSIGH
Assay: Antagonist activity at recombinant human P2X3 receptor expressed in Xenopus oocytes assessed as inhibition of ATP-induced ion current preincubated for 20 mins followed by ATP addition by two-electrode voltage clamp assay
Type: cell-based
I'd appreciate it if you could supply IC50 values for the items below.
# unit: nM | format: bare number

Enquiry: Identify IC50 associated with the compound `Cc1nc(NC(=O)c2cccc(Oc3ccccc3)c2)c(C(=O)O)c(C(=O)O)c1O`
Return: 928

Enquiry: Identify IC50 associated with the compound `Cc1nc(Cc2ccccc2Oc2ccccc2)c(C(=O)O)c(C(=O)O)c1O`
Return: 2930

Enquiry: Identify IC50 associated with the compound `Cc1nc(Cc2cccc3ccccc23)c(/C=C/C(=O)O)c(C=O)c1O`
Return: 145

Enquiry: Identify IC50 associated with the compound `Cc1nc(Cc2ccc(Oc3ccccc3)cc2)c(C(=O)O)c(C(=O)O)c1O`
Return: 1050

Enquiry: Identify IC50 associated with the compound Cc1nc(Cc2cccc(Oc3ccccc3)c2)c2c(c1O)C(O)OC2=O (stereo unspecified)
Return: 652

Enquiry: Identify IC50 associated with the compound `COc1ccc(CCc2nc(C)c(O)c(C(=O)O)c2C(=O)O)cc1`
Return: 460

Enquiry: Identify IC50 associated with the compound `Cc1nc(Cc2cccc(Oc3ccccc3)c2)c(CCC(=O)O)c(C(=O)O)c1O`
Return: 638

Enquiry: Identify IC50 associated with the compound `Cc1nc(CC(c2ccccc2)c2ccccc2)c(C(=O)O)c(C(=O)O)c1O`
Return: 824

Enquiry: Identify IC50 associated with the compound `Cc1nc(CCc2ccccc2)c(C(=O)O)c(C(=O)O)c1O`
Return: 797

Enquiry: Identify IC50 associated with the compound `Cc1nc(CCc2cccc(Oc3ccccc3)c2)c(C(=O)O)c(C(=O)O)c1O`
Return: 587

Enquiry: Identify IC50 associated with the compound `Cc1nc(Cc2cccc(Oc3ccccc3)c2)c(/C=C/C(=O)O)c(C=O)c1O`
Return: 60

Enquiry: Identify IC50 associated with the compound `Cc1nc(Cc2cccc3ccccc23)c(CCC(=O)O)c(C=O)c1O`
Return: 636

Enquiry: Identify IC50 associated with the compound `Cc1nc(Cc2cccc(Oc3ccccc3)c2)c(C(=O)O)c(C(=O)O)c1O`
Return: 474

Enquiry: Identify IC50 associated with the compound Cc1nc(Cc2cccc3ccccc23)c2c(c1O)C(O)OC2=O (stereo unspecified)
Return: 856

Enquiry: Identify IC50 associated with the compound `Cc1nc(CCc2ccc(C(=O)O)cc2)c(C(=O)O)c(C(=O)O)c1O`
Return: 458

Enquiry: Identify IC50 associated with the compound `Cc1nc(Cc2cccc3ccccc23)c(C(=O)O)c(C(=O)O)c1O`
Return: 1250

Enquiry: Identify IC50 associated with the compound `Cc1nc(Cc2cccc(Oc3ccccc3)c2)c(CCC(=O)O)c(C=O)c1O`
Return: 366

Enquiry: Identify IC50 associated with the compound `Cc1nc(Cc2cccc(Oc3ccccc3)c2)c(/C=C/C(=O)O)c(C(=O)O)c1O`
Return: 377

Enquiry: Identify IC50 associated with the compound `Cc1nc(-c2cccc(Oc3ccccc3)c2)c(C(=O)O)c(C(=O)O)c1O`
Return: 3300

Enquiry: Identify IC50 associated with the compound `Cc1nc(/C=C/c2ccccc2)c(C(=O)O)c(C(=O)O)c1O`
Return: 920

Enquiry: Identify IC50 associated with the compound `Cc1nc(NC(=O)c2ccccc2)c(C(=O)O)c(C(=O)O)c1O`
Return: 723

----------
I'd appreciate it if you could supply pIC50 values for the items below.
Target: P2X purinoceptor 1 (Mus musculus, UniProt P51576)
Sequence (P51576 whole entry): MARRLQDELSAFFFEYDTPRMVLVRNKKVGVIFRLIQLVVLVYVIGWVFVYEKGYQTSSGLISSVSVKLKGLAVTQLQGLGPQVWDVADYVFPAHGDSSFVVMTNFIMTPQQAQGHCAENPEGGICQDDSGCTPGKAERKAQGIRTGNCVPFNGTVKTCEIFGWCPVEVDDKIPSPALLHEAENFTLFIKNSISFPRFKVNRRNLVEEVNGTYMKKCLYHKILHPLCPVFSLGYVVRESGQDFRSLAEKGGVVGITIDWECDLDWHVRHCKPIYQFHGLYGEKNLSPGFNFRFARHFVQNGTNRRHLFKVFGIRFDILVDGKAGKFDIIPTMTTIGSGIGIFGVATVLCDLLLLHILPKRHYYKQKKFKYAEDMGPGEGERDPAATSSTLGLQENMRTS
Assay: Antagonist activity at recombinant mouse P2X1 receptor expressed in Xenopus oocytes assessed as inhibition of ATP-induced ion current preincubated for 20 mins followed by ATP addition by two-electrode voltage clamp assay
Assay type: cell-based
Note on pIC50: it is the negative log10 of concentration, concentration in mol/L.

Enquiry: Identify pIC50 associated with the compound `Cc1nc(CCc2ccccc2)c(C(=O)O)c(C(=O)O)c1O`
Return: 6.19

Enquiry: Identify pIC50 associated with the compound `Cc1nc(/C=C/c2ccccc2)c(C(=O)O)c(C(=O)O)c1O`
Return: 6.11

Enquiry: Identify pIC50 associated with the compound `COc1ccc(CCc2nc(C)c(O)c(C(=O)O)c2C(=O)O)cc1`
Return: 6.35

Enquiry: Identify pIC50 associated with the compound `Cc1nc(CCc2ccc(C(=O)O)cc2)c(C(=O)O)c(C(=O)O)c1O`
Return: 6.57

Enquiry: Identify pIC50 associated with the compound `Cc1nc(/N=N/c2ccc(C(=O)O)cc2)c(COP(=O)(O)O)c(C=O)c1O`
Return: 7.52

----------
Biological target: P2X purinoceptor 1 (Mus musculus)
Sequence (whole entry): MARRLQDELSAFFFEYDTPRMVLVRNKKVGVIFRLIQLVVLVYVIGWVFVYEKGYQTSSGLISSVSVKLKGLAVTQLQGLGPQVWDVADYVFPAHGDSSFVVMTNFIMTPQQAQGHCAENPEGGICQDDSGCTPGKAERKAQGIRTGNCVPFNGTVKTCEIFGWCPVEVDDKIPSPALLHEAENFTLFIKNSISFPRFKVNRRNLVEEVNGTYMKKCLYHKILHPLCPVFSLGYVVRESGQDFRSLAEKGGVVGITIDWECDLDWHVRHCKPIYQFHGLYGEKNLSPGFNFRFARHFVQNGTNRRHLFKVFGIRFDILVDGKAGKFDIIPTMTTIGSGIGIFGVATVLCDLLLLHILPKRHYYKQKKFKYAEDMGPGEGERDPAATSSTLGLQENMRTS
Test: Antagonist activity at recombinant mouse P2X1 receptor expressed in Xenopus oocytes assessed as inhibition of ATP-induced ion current at 10 uM preincubated for 20 mins followed by ATP addition by two-electrode voltage clamp assay relative to control
Assay type: cell-based
ENDPOINT_NAME: inhibition (%)
# unit: % | format: bare number

Enquiry: Identify inhibition associated with the compound `CC(=O)c1c(O)c(C)nc(/C=C/c2ccccc2)c1C(=O)O`
Return: 52.4

Enquiry: Identify inhibition associated with the compound `Cc1nc(Cc2cccc3ccccc23)c(/C=C/C(=O)O)c(C=O)c1O`
Return: 22

Enquiry: Identify inhibition associated with the compound `Cc1nc(Cc2cccc3ccccc23)c(C(=O)O)c(C(=O)O)c1O`
Return: 48.7

Enquiry: Identify inhibition associated with the compound `Cc1nc(Cc2cccc(Oc3ccccc3)c2)c(/C=C/C(=O)O)c(C(=O)O)c1O`
Return: 33.7

Enquiry: Identify inhibition associated with the compound `Cc1nc(Cc2cccc(Oc3ccccc3)c2)c(CCC(=O)O)c(C(=O)O)c1O`
Return: 31.7
